Measured Cell cytotoxicity assay (% Inhibition at 10 μM), listed per entry for reference.
Tested on: MiaPaCa-2 cells
assayNotes: Cytotoxicity assay in MiaPaCa-2 (XTT, 72 h)
Type: cell-based
statedConditions: 10 μM, DMSO control = 0% inhibition
readout: Cell cytotoxicity assay (% Inhibition at 10 μM) (%)

molecule | subjectOfTest | observedResult
O=C(NCC1=NOC(COc2cc(Cl)cnc2-c2cccnc2)C1)c1ccc2nccn2c1 (single isomer, unassigned) [Example 13b] | MiaPaCa-2 cells | 100
O=C(NCC1=NOC(COc2cccnc2-c2ccc(Cl)nc2)C1)c1ccc2nccn2c1 (single isomer, unassigned) [Example 8b] | MiaPaCa-2 cells | 94
Cc1cnc(-c2ccc(F)nc2)c(OCC2CC(CNC(=O)c3ccc4nccn4c3)=NO2)c1 (single isomer, unassigned) [Example 11b] | MiaPaCa-2 cells | 98
Cc1ccc(OCC2CC(CNC(=O)c3ccc4nccn4c3)=NO2)c(-c2ccc(F)nc2)n1 (single isomer, unassigned) [Example 12b] | MiaPaCa-2 cells | 100
O=C(NCC1=NOC(COc2cc(F)cnc2-c2ccc(F)nc2)C1)c1ccc2nccn2c1 (single isomer, unassigned) | MiaPaCa-2 cells | 95
O=C(NCC1=NOC(COc2cccnc2-c2ccc(Cl)nc2)C1)c1ccc2nccn2c1 (single isomer, unassigned) [Example 8a] | MiaPaCa-2 cells | 10
